B1: HDV Ribozyme (parent)
chain: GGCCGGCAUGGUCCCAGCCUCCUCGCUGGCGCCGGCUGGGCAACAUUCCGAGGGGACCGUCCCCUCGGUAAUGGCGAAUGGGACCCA

variants of: B1; test: self-cleavage, relative activity (ratio to wild type); higher = more cleavage; co-transcriptional
RESULT_TYPE: self-cleavage
Enter the number alone.

Record summary for G2C C57A : reported self-cleavage = 0.086

Recorded self-cleavage (variant G25U G39U ): 0.0302

Item: G29A G80A | self-cleavage: 0.163

Entry G35U A71U — recorded self-cleavage = 0.178

The recorded self-cleavage for G59U G68C is 0.973

Reported self-cleavage ( C21U C57A ) = 0.233

Notebook: G31U G55A , self-cleavage read as 0.506

The variant identified as C18A A56C registered its self-cleavage at 0.0573

Entry U20A G59C ; self-cleavage = 0.0475

Looking up G39U C62U , I see its self-cleavage listed as 0.918

Entry A42C C61A , self-cleavage reported as 0.312

# self-cleavage of C22G U37G = 0.0831

Noted for G2A C57G : its self-cleavage reads 0.158

// field: self-cleavage; key: G39U G80U ; value = 0.119

For G2A G80U the variant record lists self-cleavage as 0.0227

G34U G55A has a reported self-cleavage of 0.114

C15U C44A has a reported self-cleavage of 0.684

Briefly, self-cleavage measured for C30U C84A : 0.252

// self-cleavage lookup, variant = G67A G76U , result: 0.965

Lab note: G5A G53C gave self-cleavage of 0.302

self-cleavage measured on G54A G67C = 0.591

The reported self-cleavage of the variant C26A U60G was 1.2

// self-cleavage lookup, variant = G31C G50U , result: 0.208

G6C C84U yielded self-cleavage of 0.0573

Input U20G G81U . Output self-cleavage: 0

Given item G10A G40C , the value recorded as its self-cleavage is 0.302

G17C G34U has a reported self-cleavage of 0.0415

The reported self-cleavage of the variant G5U G54C was 0.867

Notebook: A16G A78C , self-cleavage read as 0.308

The measured self-cleavage associated with U9A C13U reads 1.36

Measured self-cleavage, G10U C13A : 0.0332

Documented self-cleavage of G39U U72A : 0.13

Per the record, C36U A77C has self-cleavage of 0.145

The measured self-cleavage associated with G50C C86U reads 0.748

What the record says about U47G G76C : self-cleavage is 0.727

G28U G53A has a reported self-cleavage of 0.0801

Summary for this variant, U27A G76U : self-cleavage is 0.65

For record G28U G74U the listed self-cleavage is 0.0639

Per the record, C44G U60C has self-cleavage of 0.569

For this variant ( A42U ), measured self-cleavage is 0.529

Kindly note the recorded self-cleavage for U65C C75G , which is 0.482

Looking up A45C G59A , I found its self-cleavage recorded as 0.704

Noted for G10U U12G : its self-cleavage reads 0.172

For this variant ( C18U U37A ), measured self-cleavage is 0.0773

For reference, reported self-cleavage for G39U A51C stands at 0.849

Lab note: measured self-cleavage of G6C C44U was 0
